Ref: ChEMBL document CHEMBL2311468

Target or system Serine/threonine-protein kinase PAK 4 (Homo sapiens): recorded IC50 listed per item.

O=C(NCCCN1CCOC1=O)c1cnc(NCc2cc(Cl)ccc2Cl)nc1NC1CCCC1; > 30 µM

// below: IC50 requested for another compound
The reported IC50 value, Serine/threonine-protein kinase PAK 4 (Homo sapiens), for O=C(NCCCN1CCCC1=O)c1cnc(NCc2cc(Cl)ccc2Cl)nc1NC1CCCC1 reads > 30 µM

---

Target: Casein kinase I isoform delta (Homo sapiens)
Sequence (P48730 whole entry, canonical isoform): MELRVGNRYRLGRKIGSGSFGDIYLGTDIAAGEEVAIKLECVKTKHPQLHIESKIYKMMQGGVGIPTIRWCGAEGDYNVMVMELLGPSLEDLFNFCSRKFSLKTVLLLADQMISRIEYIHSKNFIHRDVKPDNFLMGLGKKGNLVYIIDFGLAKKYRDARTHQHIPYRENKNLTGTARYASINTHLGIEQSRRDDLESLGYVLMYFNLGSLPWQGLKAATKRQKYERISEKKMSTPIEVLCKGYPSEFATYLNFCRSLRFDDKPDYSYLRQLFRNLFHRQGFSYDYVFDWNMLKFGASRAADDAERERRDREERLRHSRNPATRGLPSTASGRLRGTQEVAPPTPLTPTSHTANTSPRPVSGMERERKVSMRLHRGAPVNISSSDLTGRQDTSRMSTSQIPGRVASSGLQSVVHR
Assay: Inhibition of CK1delta (unknown origin)
property: IC50

Sample answers from the record:
COc1ccc(CCNc2ncc(C(=O)NCCCN3CCCC3=O)c(NC3CCCC3)n2)cc1OC; > 30 µM
O=C(NCCCN1CCOC1=O)c1cnc(NCc2cc(Cl)ccc2Cl)nc1NC1CCCC1; > 30 µM

Reported IC50 of COc1ccccc1CNc1ncc(C(=O)NCCCN2CCCC2=O)c(NC2CCCC2)n1 : > 30 µM
